- Target: T1, recombinant human GM-CSF (human, UniProt P04141 18-144)
- T1 construct: also called rhGM-CSF; CSF2
- T1 sequence (P04141 18-144 limits assumed): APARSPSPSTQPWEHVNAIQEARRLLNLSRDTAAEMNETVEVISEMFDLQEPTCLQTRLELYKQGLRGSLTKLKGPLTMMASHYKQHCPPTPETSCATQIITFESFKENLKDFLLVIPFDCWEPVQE
- Experiment Summary: ELISA on coated rhGM-CSF, UBA relative to 1D2
Property Measured: binding affinity % of 1D2 (%)
Supply the numeric figure in %, leaving out any unit text.

1D2 SDR mutant LV95L (antibody, IgG1, V domains shown, also called X10 L) VH: QVQLVQSGAEVKKPGASVKVSCEASGYTFTDKYLHWVRQAPGQGLEWMAWINPKSGGTFYAQNFKGRVTVTRDTSINTAYLELTSLRLDDTSTYYCARGRDYYDQGAADLWGQGTMVTVSS VL: DIQLTQSPSSLSASVGDRVTITCRASQGINSVLAWYQQKPGKAPKLLLYAASKLESGVPSRFSGSGSGTDYTLTISSLQPEDFGTYYCQQYYSPLRTFGQGTKVEIKR :: 41

binder 1D2 SDR mutant HK54A (antibody, IgG1, V domains shown, also called X3 A) VH: QVQLVQSGAEVKKPGASVKVSCEASGYTFTDKYLHWVRQAPGQGLEWMAWINPASGGTFYAQNFKGRVTVTRDTSINTAYLELTSLRLDDTSTYYCARGRDYYDQGAADLWGQGTMVTVSS VL: DIQLTQSPSSLSASVGDRVTITCRASQGINSVLAWYQQKPGKAPKLLLYAASKLESGVPSRFSGSGSGTDYTLTISSLQPEDFGTYYCQQYYSPVRTFGQGTKVEIKR , binding affinity % of 1D2 observed: 117

Looking up 1D2 SDR mutant HD31E (antibody, IgG1, V domains shown, also called X1 E) VH: QVQLVQSGAEVKKPGASVKVSCEASGYTFTEKYLHWVRQAPGQGLEWMAWINPKSGGTFYAQNFKGRVTVTRDTSINTAYLELTSLRLDDTSTYYCARGRDYYDQGAADLWGQGTMVTVSS VL: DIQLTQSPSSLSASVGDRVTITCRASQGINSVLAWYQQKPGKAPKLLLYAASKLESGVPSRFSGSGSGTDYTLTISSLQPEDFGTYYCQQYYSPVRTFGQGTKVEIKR , I found its binding affinity % of 1D2 recorded as 63

Reported binding affinity % of 1D2 for 1D2 SDR mutant HK32C (antibody, IgG1, V domains shown, also called X2 C) VH: QVQLVQSGAEVKKPGASVKVSCEASGYTFTDCYLHWVRQAPGQGLEWMAWINPKSGGTFYAQNFKGRVTVTRDTSINTAYLELTSLRLDDTSTYYCARGRDYYDQGAADLWGQGTMVTVSS VL: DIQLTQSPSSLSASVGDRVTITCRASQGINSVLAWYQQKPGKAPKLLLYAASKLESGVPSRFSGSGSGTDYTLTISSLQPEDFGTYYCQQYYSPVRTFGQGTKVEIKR was 86

The binder listed as 1D2 SDR mutant HD31V (antibody, IgG1, V domains shown, also called X1 V) VH: QVQLVQSGAEVKKPGASVKVSCEASGYTFTVKYLHWVRQAPGQGLEWMAWINPKSGGTFYAQNFKGRVTVTRDTSINTAYLELTSLRLDDTSTYYCARGRDYYDQGAADLWGQGTMVTVSS VL: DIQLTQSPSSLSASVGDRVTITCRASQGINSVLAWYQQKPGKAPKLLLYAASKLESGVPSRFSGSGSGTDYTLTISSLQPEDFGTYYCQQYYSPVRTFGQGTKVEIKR has a reported binding affinity % of 1D2 of 71
